Field: growth. Provide a value for each of the compounds that follow.
Test system: SNB-75 CNS
Experiment: NCI-60 one-dose screen, 48 h (100 = growth as untreated, 0 = no growth, -100 = all killed)
Conditions: 10 µM
Compounds without any hit were thinned out: in the full panel of roughly 83,000, 20% have a hit. Calls of active or inactive are those of the source. Rule for the calls: active = growth percent below 10; inactive = the rest.

Give the reported growth for this compound. O=C(O)CC(Cl)C(Cl)CC(=O)O (stereo unspecified) 103% (inactive)

Answer with the recorded growth of `C#Cc1ccc(-n2c(/C=C/c3ccc4ccccc4n3)nc3ncccc3c2=O)cc1` only. -59.2% (active)

Annotate the compound `COc1ccc2c(c1)nc(N)c1c3cccnc3cn21` with its measured growth. 42% (inactive)

Please give the documented growth of COc1ccc(-c2nsc3c2NC(=O)CC3c2ccc(F)cc2)cc1 (stereo unspecified) 63.5% (inactive)

Give the reported value of growth for this record: `Cc1cc(Cl)nc(N(CCCNc2ccnc3cc(Cl)ccc23)Cc2cccs2)n1` 55.6% (inactive)

Give the reported value of growth for this record: `CC12O[C@H](C[C@@H](O)[C@H]1O)n1c3ccccc3c3c4c(c5c6ccccc6n2c5c31)C(=O)N(CCCN)C4=O` 49.8% (inactive)

---

System: MALME-3M melanoma
Assay: NCI-60 one-dose screen, 48 h (100 = growth as untreated, 0 = no growth, -100 = all killed)
Settings: 10 µM
This is part of a sample that, as a whole, favours compounds with a hit. Of some 83,000 tested, about 20% had one in any assay.
# if measured growth < 40%: criterion met  # else: criterion not met

Problem: For the compound Nc1c(C(=O)Nc2cccc(Br)c2)sc2nc3c(cc12)C(O)CCC3 (centres undefined) , is growth under 40%? criterion not met

Quick check: growth of `Cc1ccc(C(=O)N2C/C(=C/c3ccc(F)cc3)C(=O)/C(=C/c3ccc(F)cc3)C2)cc1` under 40%? criterion not met

State whether 40% exceeds growth recorded for `O=C(Nc1ccc(Cl)c([N+](=O)[O-])c1)Nc1nc2ccccc2s1` . criterion not met

Lab note: confirm whether the reported growth for this compound is below 40%, equality not counting. compound: `CCOC(=O)N1C/C(=C/c2ccc(OC)cc2)C(=O)/C(=C/c2ccc(OC)cc2)C1` criterion met

I wonder whether `O=S(=O)(NCCNc1nccc(-c2c(-c3ccc(F)cc3)nc3sccn23)n1)c1ccc2ccccc2c1` has growth below 40%. Can you tell? criterion not met

Please let me know if COc1cc([C@@H]2c3cc4c(cc3C(Br)[C@H]3COC(=O)[C@H]23)OCO4)cc(OC)c1OC (some centres undefined) shows growth below 40%. criterion met

Given the entry `CC(=O)c1nc2ccccc2n1CCNC(N)=O` , would its reported growth be below 40%? criterion not met

Threshold test, growth < 40%: `CN(C)C(=S)N/N=C\C=N/NC(=S)N(C)C` criterion not met

Given the entry `CCN(CC)CCC(=O)Nc1cccc2c1C(=O)c1c(c(O)c3ccccc3c1O)C2=O` , would its reported growth be below 40%? criterion not met

Please check: growth for `FC(F)(F)c1ccc(-c2cnc(-n3cc(COCCN4CCCCC4)nn3)nc2NC2CCCCCC2)cc1` , strictly under 40% or not? criterion met

Take the compound `COc1cc(-c2cc(/C=C/C(=O)c3ccc(N)cc3)[nH]n2)cc(OC)c1OC` and say whether its growth is less than 40%. criterion not met

# check: growth < 40% for `COc1ccc(-c2nn(-c3cccc(NC(=O)c4cccc(C(F)(F)F)c4)c3)cc2-c2ccncc2)cc1Cl` criterion met

Is it true that growth reported for Nc1ccc2c(c1)C1(CCC2)NC(=O)NC1=O (centres undefined) is less than 40%? criterion not met

Hi there! Is growth for `COc1ccc(OC)c(/C=C/c2nnc(Nc3ccc(Cl)cc3)o2)c1` below 40%, do you know? criterion not met

Regarding `COc1cc(/C=N/NC(=O)c2ccccc2Nc2ccnc(C(F)(F)F)c2)ccc1O` , kindly confirm whether its growth is beneath 40%. criterion not met

Given `O=C1/C(=C\c2ccc(F)cc2)CN(C(=O)c2ccccc2F)C/C1=C\c1ccc(F)cc1` , is recorded growth strictly lower than 40%? criterion met

Is growth strictly under 40% for the entry COc1ccc(CN2CCC(N3CCCC3=O)c3cc(Cl)ccc32)cc1 (centres undefined) ? criterion not met

Dear reviewer, please state whether `N#Cc1ncc(Br)c(NC2CCCCCC2)n1` has growth strictly beneath 40%. criterion not met

Take the compound CCN1CCCC1CNC(=O)c1ncc(-c2ccc(C(F)(F)F)cc2)c(NC2CCCCCC2)n1 (centres undefined) and say whether its growth is less than 40%. criterion not met

# check: growth < 40% for CC(C)=CCc1cc(O)cc2c1OC(C=C(C)C)C1=C2C(=O)C2=C(C1=O)S(=O)(=O)CCN2 (centres undefined) criterion met

Input `CCN(CCCCCCN1CC(=O)N(CCCCCCN(CC)Cc2ccccc2OC)CC1=O)Cc1ccccc1OC` ; condition: growth strictly below 40%. Does it hold? criterion not met

Say whether its growth is strictly beneath 40%. Entry: COc1ccc2nc3ccccc3c(NCCNCC(C)O)c2c1 (centres undefined) criterion met

Check if growth falls below 40% for `CN(C)CCN=c1nc2c(c(N)n1-c1ccccc1)c(=S)n(-c1ccccc1)c(=S)n2-c1ccccc1` . criterion met

Is growth strictly under 40% for the entry `O=C1C(=O)c2ccccc2C(O)=C1CCCc1ccc(C2CCCCCC2)cc1` ? criterion met

Decide: growth of `CCCCCCCNc1nc(C=O)ncc1-c1ccc(C(F)(F)F)cc1` strictly below 40%? criterion not met

Lab note: confirm whether the reported growth for this compound is below 40%, equality not counting. compound: `Cc1nc2c(c(=O)[nH]1)OCN(Cc1ccccc1)C2` criterion not met

Record `COC(=O)[C@@H]1[C@H](O)[C@H](C)[C@H](O)[C@@](C)(O)/C=C\C=C(C)C(=O)Nc2c(C)c(OC(C)=O)c3c(c2O)C(=O)C(C)=C2OCOC(=C23)C(C)=C[C@@](C)(O)[C@H](O)[C@@H](C)[C@H]1OC(C)=O` : is its growth strictly below 40%? criterion not met

Strictly below 40%: is that where growth of `O=C(Nc1cccc(-n2cc(-c3ccncc3)c(-c3ccc(O)c(Cl)c3)n2)c1)c1ccc(Cl)c(Cl)c1` sits? criterion met

Strictly below 40% in growth? CCOCCOCCOCCOCCOCCOCCOCCOCCOCCO (tested in a mixture with another compound) criterion met

Threshold test, growth < 40%: `Nc1c(C(=O)Nc2cccc(F)c2)sc2nc3c(cc12)C(=O)CCC3` criterion met

# TODO verify growth < 40% strictly for this compound: `Nc1c(C(=O)Nc2ccccc2Cl)sc2nc3c(cc12)C(=O)CCC3` criterion met

Field: below-cutoff. Rule: recorded growth strictly less than 40%. Subject: `COc1ccc(S(=O)(=O)Nc2c(/C=C\c3cc(OC)c(OC)c(OC)c3)ccc(OC)c2O)cc1` criterion not met

Given the entry Cc1[nH]nc2c1C(c1cnn(C)c1)C(C#N)=C(N)O2 (centres undefined) , would its reported growth be below 40%? criterion not met

# TODO verify growth < 40% strictly for this compound: `O=C(Cc1csc2nc(-c3ccc(Cl)cc3)cn12)N/N=C/c1ccccc1O` criterion not met

Please check: growth for `N#Cc1cccc(OCc2nc(N)nc(N)c2-c2ccc(Cl)c(Cl)c2)c1` , strictly under 40% or not? criterion met

I wonder whether `Cc1cc(Cc2cc(C)c(O)c(C)c2)cc(C)c1O` has growth below 40%. Can you tell? criterion not met

Say whether its growth is strictly beneath 40%. Entry: CC(=O)C1CCC2C3CC(F)C4=CC(=O)CCC4(C)C3C(O)CC12C (centres undefined) criterion not met

Given `COc1ccc2c(c1)O/C(=C\c1ccc([N+](=O)[O-])s1)C2=O` , is recorded growth strictly lower than 40%? criterion not met

Determine if `COc1cc(-c2nn3c(/C=C4/C(=O)Nc5ccccc54)c(-c4ccc(C)cc4)nc3s2)cc(OC)c1OC` shows growth strictly lower than 40%. criterion met
